# Experimental Protocol: CCTE_Mundy_HCI_hNP1_CellTiter: CCTE's Cell Titer-Glo 2 Assay in human neuroprogenitor cells for Viability, Mundy Lab (AID 2284241)
Results filed as inconclusive are left out. Calls of active or inactive are those of the source. The calls were made as follows: active = hit-call score of the fitted dose curve at least 0.9, where 1 is the maximum; inconclusive = response in the unintended direction; inactive = score below 0.9.
Result category, one only: active, inactive

Look over these answered cases.
Molecule: CN/C(=N\[N+](=O)[O-])NCc1cnc(Cl)s1
Label: inactive

Molecule: COC(=O)N(C(=O)N1CO[C@@]2(C(=O)OC)Cc3cc(Cl)ccc3C2=N1)c1ccc(OC(F)(F)F)cc1
Label: inactive

Molecule: CCNC(=O)NC(=O)C(C#N)=NOC
Label: inactive

Molecule: O=C(Nc1ccccc1-c1ccc(Cl)cc1)c1cccnc1Cl
Label: inactive

Molecule: CCSC(=O)N1CCCCCC1
Label: inactive

Molecule: CCN(CC)c1nc(C)cc(OP(=S)(OC)OC)n1
Label: active

Molecule: CNC(=O)Oc1cccc2ccccc12
Label: inactive

Molecule: COP(=S)(OC)SCn1nnc2ccccc2c1=O
Label: inactive

Query: Test call, this molecule: CC(C)(C)C(=O)C(Oc1ccc(Cl)cc1)n1cncn1 (configuration not stated)
Reply: inactive

Query: Now consider N#CN=C1SCCN1Cc1ccc(Cl)nc1 and answer again.
Reply: inactive

Query: Now consider Cc1c(COC(=O)[C@@H]2[C@H](/C=C(\Cl)C(F)(F)F)C2(C)C)cccc1-c1ccccc1 and answer again.
Reply: active

Query: Now consider CS(=O)(=O)c1ccc(C(=O)C2C(=O)CCCC2=O)c([N+](=O)[O-])c1 and answer again.
Reply: inactive

###

# Experimental Protocol: CCTE_Mundy_HCI_Cortical_Synap_Neur_Matur_NeuriteSpotCountPerNeuriteLength: CCTE's Synaptogenesis and Neurite Maturation Assay in rat cortical cells for Neurite Spot Count per Neurite Length, Mundy Lab (AID 2284210)
# Procedure: CCTE_Mundy_HCI_Cortical_Synap&Neurite_Matur is a multiplexed, cell-based-readout assay that uses rat primary cortical cells with measurements taken at 288.33 hours after chemical dosing in a microplate: 96-well plate.CCTE_Mundy_HCI_Cortical_Synap_Neur_Matur_NeuriteSpotCountPerNeuriteLength is one of eight components of the CCTE_Mundy_HCI_Cortical_Synap&Neurite_Matur assay. […]
The source made the active and inactive calls. The calls were made as follows: active = hit-call score of the fitted dose curve at least 0.9, where 1 is the maximum; inactive = score below 0.9.
Result category, one only: active, inactive

Look over these answered cases.
Molecule: CS(=O)(=O)c1cc(C(F)(F)F)ccc1C(=O)c1cnoc1C1CC1
Label: inactive
//
Molecule: C=C(C)CN(CC)c1c([N+](=O)[O-])cc(C(F)(F)F)cc1[N+](=O)[O-]
Label: active
//
Molecule: O=C(Nc1ccccc1-c1ccc(Cl)cc1)c1cccnc1Cl
Label: inactive

Query: Test call, this molecule: COC(=O)N(C(=O)N1CO[C@@]2(C(=O)OC)Cc3cc(Cl)ccc3C2=N1)c1ccc(OC(F)(F)F)cc1
Reply: inactive

Query: Now consider COP(=S)(OC)SCn1nnc2ccccc2c1=O and answer again.
Reply: inactive

###

# Tested on: frog Estrogen Receptor (ER), gene 398734
# Experimental Protocol: ATG_frER1_XSP2: Attagene TRANS-FACTORIAL Multi-Species (XSP2) HepG2 Assay for frog Estrogen Receptor (ER) (AID 2283821);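 also: hits raise reporter mRNA above DMSO baseline so potency means agonist or activator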
Records with an inconclusive call do not appear. Calls of active or inactive are those of the source. How the source made its calls: active means hit-call score of the fitted dose curve at least 0.9, where 1 is the maximum; inconclusive means response in the unintended direction; inactive means score below 0.9.
Result category, one only: active, inactive

Compound: CC1(C)CCC(=Cc2ccc(Cl)cc2)C1(O)Cn1cncn1 (stereo unspecified)
Label: inactive

Compound: CCN(CC)C(=O)C(C)Oc1cccc2ccccc12 (stereo unspecified)
Label: inactive

Compound: CC(C)NC(=O)N1CC(=O)N(c2cc(Cl)cc(Cl)c2)C1=O
Label: inactive

Compound: COP(=S)(OC)Oc1ccc([N+](=O)[O-])c(C)c1
Label: active

Compound: Cc1c(COC(=O)[C@@H]2[C@H](/C=C(\Cl)C(F)(F)F)C2(C)C)cccc1-c1ccccc1
Label: active

Note: attention shifts to another entry.
Query: Test call, this compound: CC1(C)C(C=C(Cl)Cl)C1C(=O)OC(C#N)c1cccc(Oc2ccccc2)c1 (stereo unspecified)
Reply: active
